# protocol: Primary qHTS to identify inhibitors of SARS-CoV-2 cell entry (AID 1645846); note: nearly all actives have a fitted effect of over 45% in size
# details: SARS-CoV-2 pseudovirus cell entry assay, luminescence
Results filed as inconclusive are left out. Active and inactive are the calls of the source. Calls come from the whole dose curve.
Result category, one only: true (1) for active, false (0) for inactive

# molecule, label_class
measured = [
    ("CC(C)(O)CNc1ncc(-c2ccnc(Nc3ccncc3)n2)c(CC2CC2)n1", "true (1)"),
    ("Cc1ccc([C@@H]2O[C@H](CO)[C@@H](O)[C@H](O)[C@H]2O)cc1Cc1ccc(-c2ccc(F)cc2)s1", "true (1)"),
    ("C=C1CC2C3CCC4=CC(=O)C=C[C@]4(C)[C@@]3(F)[C@@H](O)C[C@]2(C)[C@@]1(O)C(=O)COC(C)=O (stereo partly specified)", "false (0)"),
    ("C=C1C(=O)O[C@@H]2[C@H]3O[C@]3(C)CC/C=C(\\C)CC[C@@H]12", "true (1)"),
    ("CC1(C(=O)O)CCC2(C)CCC3(C)C(=CC(=O)C4C5(C)CCC(OC6OC(C(=O)O)C(O)C(O)C6OC6OC(C(=O)O)C(O)C(O)C6O)C(C)(C)C5CCC43C)C2C1 (stereo unspecified)", "false (0)"),
    ("Fc1ccc2[nH]ccc2c1-c1nc(N2CCOCC2)c2sc(CN3CCN(CC4CC4)CC3)cc2n1", "true (1)"),
    ("C[C@H](NC(=O)/C(C#N)=C/c1cccc(Br)n1)c1ccccc1", "true (1)"),
    ("Cc1c(CN2CCC(Nc3ncnc4sc(CC(F)(F)F)cc34)CC2)ccc2c1cc(C#N)n2Cc1cn[nH]c1", "true (1)"),
    ("C=CC(=O)Nc1ccc2ncnc(Nc3cccc(Br)c3)c2c1", "true (1)"),
    ("CC(=O)OC[C@H]1O[C@@H]([S-])[C@H](OC(C)=O)[C@@H](OC(C)=O)[C@@H]1OC(C)=O.CC[PH+](CC)CC.[Au]", "true (1)"),
]

Req: What call does the record list for CNc1nc(Nc2cnn([C@H]3CCN(C4COC4)C[C@@H]3F)c2Cl)ncc1C(F)(F)F ?
Resp: false (0)

Req: What call does the record list for CC[C@H]1OC(=O)C[C@@H](O)[C@H](C)[C@@H](O[C@@H]2O[C@H](C)[C@@H](O[C@H]3C[C@@](C)(O)[C@@H](O)[C@H](C)O3)[C@H](N(C)C)[C@H]2O)[C@@H](CC=O)C[C@@H](C)C(=O)/C=C/C(C)=C/[C@@H]1CO[C@@H]1O[C@H](C)[C@@H](O)[C@@H](OC)[C@H]1OC ?
Resp: false (0)

Req: What call does the record list for CCCN1C[C@H](C)[C@@H](O)[C@](C)(O)[C@@H](CC)OC(=O)[C@H](C)[C@@H](O[C@H]2C[C@@](C)(OC)[C@@H](O)[C@H](C)O2)C(C)[C@@H](O[C@@H]2O[C@H](C)C[C@H](N(C)C)[C@H]2O)[C@](C)(O)C[C@H]1C (stereo partly specified) ?
Resp: true (1)

Req: What call does the record list for O=C(O)[C@@H]1CCCN1 ?
Resp: false (0)

Req: What call does the record list for COc1ccc2[nH]c(C(=O)N3CCC(CC(C)(C)O)CC3)cc2c1 ?
Resp: false (0)

Req: What call does the record list for N#Cc1ccc(Cn2cncc2CN2CCN(c3cccc(Cl)c3)C(=O)C2)cc1 ?
Resp: false (0)

Req: What call does the record list for Cc1nc(-c2cccnc2)sc1C(=O)Nc1ccccc1-c1cn2c(CN3CCOCC3)csc2n1 ?
Resp: false (0)

Req: What call does the record list for Nc1nc(Nc2ccc3c(c2)CC[C@@H](N2CCCC2)CC3)nn1-c1cc2c(nn1)-c1ccccc1CCC2 ?
Resp: true (1)

Req: What call does the record list for Cc1cc(CS(=O)(=O)c2ccccc2)cc(OCc2ccc(CN3CCC[C@@H]3CO)cc2)c1 ?
Resp: true (1)

Req: What call does the record list for Cc1ccc(/C=C2\C(=O)C3(C)CCC2C3(C)C)cc1 (stereo unspecified) ?
Resp: false (0)

Req: What call does the record list for Nc1nc(NC2CC2)c2ncn([C@H]3C=C[C@@H](CO)C3)c2n1 ?
Resp: false (0)

Req: What call does the record list for O=C(NCCCNC(=O)c1ccc[nH]c1=O)c1cc(-c2ccccc2)on1 ?
Resp: false (0)

Req: What call does the record list for CN(Cc1ccc(/C=C/C(=O)NO)cc1)CC12CC3CC(CC(C3)C1)C2 ?
Resp: true (1)

Req: What call does the record list for CCCCOC(=O)NS(=O)(=O)c1sc(CC(C)C)cc1-c1ccc(Cn2ccnc2)cc1 ?
Resp: false (0)

Req: What call does the record list for Nc1nc(OC(c2ccc(-c3cccc(F)c3)cc2)C(F)(F)F)cc(-c2ccc(C[C@H](N)C(=O)O)cc2)n1 (stereo partly specified) ?
Resp: false (0)

Req: What call does the record list for O=c1c(-n2ccnn2)c[nH]n1-c1cc(N2CCOCC2)ncn1 ?
Resp: true (1)

Req: What call does the record list for O=C(NO)c1cnc(NC2(c3cccc(F)c3)CCCCC2)nc1 ?
Resp: true (1)
